Cited source: the FLAb antibody collection (doi:10.7554/elife.23156)

Field: Kd. Provide a value for each of the variants that follow.
B1: scFv; the commonest letter at each place (parent)
chain 1: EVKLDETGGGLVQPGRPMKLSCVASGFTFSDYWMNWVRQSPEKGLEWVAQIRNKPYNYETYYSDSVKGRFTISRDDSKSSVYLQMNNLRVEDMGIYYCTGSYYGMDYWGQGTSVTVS
chain 2: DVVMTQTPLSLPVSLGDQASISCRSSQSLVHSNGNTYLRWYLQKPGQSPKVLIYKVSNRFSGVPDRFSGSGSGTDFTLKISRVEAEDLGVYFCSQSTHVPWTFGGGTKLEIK

Variants of: B1
Test: Kd (Tite-Seq)
Settings: with fluorescein; format: scFv 4-4-20, heavy + light

Challenge: // lookup Kd for chain 1 Y32S N35G V37K
Response given: ≥ 10 µM

Challenge: Could you tell me which Kd is on file for chain 1 G104S W108S ?
Response given: ≥ 10 µM

Challenge: Report Kd for chain 1 S101P G104W please.
Response given: ≥ 10 µM

Challenge: Which value of Kd has been reported for chain 1 Y103C in the records?
Response given: 0.00493 µM

Challenge: Quick one: Kd for chain 1 G100M M105F ?
Response given: ≥ 10 µM

Challenge: I have this variant here, chain 1 D106W Y107G G109L , and I need its recorded Kd.
Response given: ≥ 10 µM

Challenge: Find the recorded Kd belonging to chain 1 F29E D31G N35R and report it.
Response given: ≥ 10 µM

Challenge: Quick one: Kd for chain 1 F29P D31I ?
Response given: ≥ 10 µM

Challenge: Item under review: chain 1 G100Q Y107L G109E . Reported Kd?
Response given: ≥ 10 µM

Challenge: Report Kd for chain 1 F29L D31S please.
Response given: 0.972 µM
